Data provenance: ChEMBL document CHEMBL4513216

Assay: Toxicity liver stage against HepG2, at 10uM
Assay type: cell-based
Parameters: test concentration 10 uM, cell line HepG2-A16-CD81EGFP
Conditions: human, HepG2-A16-CD81EGFP cells; read-out: INHIBITION
measure: cytotoxicity at 10 µM (%)
Numbers only; they are read as %.

Q: Quick one: cytotoxicity at 10 µM of Cc1cc(C2CCCN(C(=O)COc3ccc(F)cc3)C2)n[nH]1 (stereo unspecified) ?
Result: 3.59

Others:
Q: Quick one: cytotoxicity at 10 µM of `O=C(c1cscn1)N1CCC2(CN(Cc3ccoc3)C2)C1` ?
Result: 7.2

----------
Assay: Toxicity liver stage against HepG2, at 10uM
Format: cell-based
Parameters: test concentration 10 uM, cell line HepG2-A16-CD81EGFP
Conditions: human, HepG2-A16-CD81EGFP cells; read-out: INHIBITION
Below, each entry is listed alongside its reported cytotoxicity at 10 µM.
Numbers only; they are read as %.

Q: Quick one: cytotoxicity at 10 µM of O=C(NCC1CN(c2ncccn2)Cc2nccn2C1)c1cccnc1 (centres undefined) ?
Result: -143

Q: Quick one: cytotoxicity at 10 µM of `O=C(O)[C@@H]1CN(C(=O)CCC(F)(F)F)C[C@H]1c1ccncc1` ?
Result: 0.108

Q: Quick one: cytotoxicity at 10 µM of `Cc1nc2c(C)cccc2cc1C(=O)N1CCC2(CCNCC2)CC1` ?
Result: -8.37

Q: Quick one: cytotoxicity at 10 µM of `Cc1cc(C(=O)N2CCn3cc(CN4CCCC4)nc3C2)no1` ?
Result: -79.3

Others:
Q: Quick one: cytotoxicity at 10 µM of `Cc1ccc(-c2nc(CN3CCC(C(=O)N(C)C)CC3)cs2)o1` ?
Result: 1.32

Q: Quick one: cytotoxicity at 10 µM of `CC(C)n1cnc(-c2nc(C(=O)N3CCCC3)c3ccccn23)c1` ?
Result: 6.47

Q: Quick one: cytotoxicity at 10 µM of `CC(C)c1nnc2n1CCN(C(=O)c1ccc3c(c1)CCC3)C2` ?
Result: -10.7

Q: Quick one: cytotoxicity at 10 µM of O=C(CN1CCCCC1Cn1cccn1)NC1CCOCC1 (centres undefined) ?
Result: 4.08

Q: Quick one: cytotoxicity at 10 µM of CC(c1nc(C2CC2)no1)N(C)Cc1ccc(Cl)cc1 (centres undefined) ?
Result: 3.74

Q: Quick one: cytotoxicity at 10 µM of CCC(O)(CNCc1ccncc1)c1ccc(Br)cc1 (centres undefined) ?
Result: -8.64

Q: Quick one: cytotoxicity at 10 µM of CC(=O)N1CCc2c(nc(-c3ccncc3)nc2N(C)CC(O)CO)C1 (centres undefined) ?
Result: -13.1

Q: Quick one: cytotoxicity at 10 µM of `COc1ccnc(NC2CCN(CC(=O)N3CCCC3)CC2)n1` ?
Result: -7.88

Q: Quick one: cytotoxicity at 10 µM of `O=C(C1CC(F)(F)C1)N1C[C@@H]2CN(CC3CCCC3)CCO[C@@H]2C1` ?
Result: -8.02

Q: Quick one: cytotoxicity at 10 µM of `COCCC(=O)N1C[C@@H]2CC[C@H]1CN(C1Cc3ccccc3C1)C2` ?
Result: -7.43

Q: Quick one: cytotoxicity at 10 µM of `O=C(NC1(c2cccc(F)c2)CCOCC1)c1cc[nH]n1` ?
Result: -6.83

Q: Quick one: cytotoxicity at 10 µM of COc1ccccc1CN1CCCC(Cc2nccnc2N)C1 (centres undefined) ?
Result: -3.81

Q: Quick one: cytotoxicity at 10 µM of `CO[C@H]1CN(Cc2ccccc2F)[C@@H]2CCCO[C@H]12` ?
Result: -0.0925

Q: Quick one: cytotoxicity at 10 µM of `Cc1ccc2c(c1)[C@@H](CC(=O)N1CCN(C)CC1)CCO2` ?
Result: -11.1

Q: Quick one: cytotoxicity at 10 µM of CCC(=O)N1CCCC1c1ccsc1 (centres undefined) ?
Result: -6.05
